Cited source for all entries: paper PMC6556873

# assay_details: in vitro
# Design: species or system HB2, HEK293
# measurement_setup: human, ccd841 cells
outcome_measure: viability at 48 h, 10 µM (%)
Numeric answer only, unit % assumed.

>>> print(df.to_string())
                                   compound           outcome_measure  readout_unit  assay_value
0  O=C(CCl)N1CCN(S(=O)(=O)c2ccc3ccccc3c2)CC1  viability at 48 h, 10 µM             %         67.7
1  C=CC(=O)N1CCCC(S(=O)(=O)N2CCOCC2)C1 (centres unmarked)  viability at 48 h, 10 µM             %         97.2
2             Cc1nc(CN2CCN(C(=O)CCl)CC2)cs1  viability at 48 h, 10 µM             %         79.3

## Input Return reported viability at 48 h, 10 µM. Input compound: N#CCc1ccc(NC(=O)CCl)cc1
## Output 32.2

## Input Determine its reported viability at 48 h, 10 µM: C=CC(=O)N1CCN(C(=O)CN2C(=O)CCC2=O)CC1
## Output 103

====

# assay_details: in vitro
# Set-up: species or system CCD841, HEK293
# measurement_setup: human, hb2 cells, read-out: HB-2 Cells Viability (%)
outcome_measure: viability at 48 h, 10 µM (%)
Numbers only here, please. The scale is %.

                                   compound  readout_unit  assay_value
0  CC(C#N)(NC(=O)CCl)C1CC1 (centres unmarked)             %         99.7
1            Cc1nc(C2(NC(=O)CCl)CCCCCC2)no1             %          103
2             COC(=O)c1ccc(C)c(NC(=O)CCl)c1             %         34.3
3              N#Cc1c(NC(=O)CCl)sc2c1CCCCC2             %         44.3
4     Cl.O=C(CCl)N1CCN(Cc2ccc3c(c2)CCO3)CC1             %         22.2
5                    O=C(CCl)NNC(=O)c1cccs1             %           86

## Input Specify viability at 48 h, 10 µM for N#Cc1cccc(C(=O)NNC(=O)CCl)c1 and stop.
## Output 103

## Input Indicate the recorded viability at 48 h, 10 µM value for this compound: O=C(CCl)Nc1ccc(Cl)nc1
## Output 31.5

## Input For the compound CC(C)(C)c1cc(NC(=O)CCl)on1 , report viability at 48 h, 10 µM.
## Output 32.8

## Input // Input: Cc1ccc(NC(=O)CCl)cc1S(N)(=O)=O . Output its viability at 48 h, 10 µM only.
## Output 8.9

## Input Complete the entry with viability at 48 h, 10 µM for CC(C)(C)NC(=O)NC(=O)CCl
## Output 111

====

# assay_details: in vitro
# Design: species or system HB2, CCD841
# measurement_setup: human, hek293 cells
So basically: is viability at 48 h, 10 µM under 70%? Then True. Not under? Then False.

Consider the following illustrative entries.
>>> print(df.to_string())
                               molecule  group_label
0               CC(C)N(C(=O)CCl)C1CCCC1        False
1  CC(C)(C)NC(=O)CN1CCN(C(=O)CCl)CC1.Cl        False
2              O=C(CCl)NC(=O)NCc1ccccc1         True

Please examine the following record next.
## Input Would you kindly verify if viability at 48 h, 10 µM of C=CC(=O)N(C)CC1CCn2ccnc2C1 (stereo not drawn) is strictly less than 70%?
## Output False
